procedure-details: Haemolysis assay
Format: cell-based
condition-info: human, whole blood, 100 µg mL-1
measured-property: hemolysis at 3 h (%)
Form entry: value (%) — number only.

Requested field: hemolysis at 3 h. Item: CCCCCCCCCCC(=O)N[C@@H](CCCCN)C(=O)N[C@@H](CCCCN)C(=O)N[C@@H](CCCCN)C(=O)N[C@@H](CCCCNC(=O)[C@H]1NC(=O)[C@H]2NC(=O)[C@H](NC(=O)[C@@H]3NC(=O)[C@H](CC(N)=O)NC(=O)[C@H](NC(=O)[C@@H](CC(C)C)NC)[C@H](O)c4ccc(c(Cl)c4)Oc4cc3cc(c4O[C@@H]3O[C@H](CO)[C@@H](O)[C@H](O)[C@H]3O[C@H]3C[C@](C)(N)[C@H](O)[C@H](C)O3)Oc3ccc(cc3Cl)[C@H]2O)c2ccc(O)c(c2)-c2c(O)cc(O)cc21)C(=O)O [Compound 18, nC10CO-KKK-K(Vancomycin)-OH]
1.4

Taken from paper PMC5750218.
